Measured values drawn from the RNAGym collection of RNA variant scans (doi:10.7554/elife.80360) for this set.

# reported self-cleavage; entries follow
B1: CPEB3 Ribozyme (parent)
chain: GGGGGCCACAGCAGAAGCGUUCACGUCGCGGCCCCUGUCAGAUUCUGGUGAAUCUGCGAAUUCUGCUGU

Variants of: B1
ASSAY_OVERVIEW: self-cleavage, relative activity (ratio to wild type); higher = more cleavage; co-transcriptional

Worked set:
Ask: Form field: reported self-cleavage of A60U U61C
Result: 0.629

Ask: Could you share which self-cleavage value was measured for C18A U21C ?
Result: 0.181

Ask: What does the record list as self-cleavage for U61C C66G ?
Result: 0.396

Ask: Entry under review: U38G G58C . Reported self-cleavage?
Result: 0.236

Ask: GET /values?readout=self-cleavage&item= G1A G4C
Result: 0.0471

Ask: Please look up its self-cleavage: G56C C66G
Result: 0.517

Ask: Give its self-cleavage value. Item: A13U A42G
Result: 0.645

Ask: I would be grateful if you could share the reported self-cleavage for C7U U21A .
Result: 0.967

***
Ask: What self-cleavage value was documented for this variant, C12U U21G ?
Result: 0.537

Ask: # input variant: G5U U61A ; wanted: its self-cleavage
Result: 0.108
